The reported numbers originate from ChEMBL document CHEMBL1201862.

System: SF-295
Assay: NCI tumour cell line growth inhibition, 48 h
The source made the active and inactive calls. Cut-off read from the data, not from the text of the source: active = GI50 up to about 1.1 µM and inactive = higher.
recordedMetric: GI50

[ask] Which GI50 is reported with SF-295 for this entry: CC(C)=CC[C@H]1C[C@]2(CC=C(C)C)C(=O)[C@@](CC=C(C)C)(C(=O)C(C(=O)c3ccccc3)=C2O)C1(C)C [6-EPI-CLUSIANONE] ?
[reply] 4.27 µM (inactive)

[ask] Request - read-out GI50 | tested on SF-295 | compound "Cc1cc2c(c(S(=O)(=O)c3ccc(Cl)cc3[N+](=O)[O-])c1)NCCC2"
[reply] 53.2 µM (inactive)

[ask] Lookup: GI50 / SF-295 / "CCCCCCCCCC(=O)NCCc1c[nH]c2ccc(OC)cc12"
[reply] 17.4 µM (inactive)

[ask] Param readout = GI50; param system = SF-295; param query = "C/C(=N\NC(=O)c1ccccc1O)c1c(O)cc(C)oc1=O" ; response: value
[reply] 51.4 µM (inactive)

[ask] Request body: readout GI50, system SF-295, query "Cc1ccc2[nH]c(Sc3c([N+](=O)[O-])ncn3C)nc2c1" . Return the value.
[reply] > 100 µM (inactive)

[ask] Give SF-295 GI50 for CC(=O)C(C)C(=O)N1C(=O)N(C)C2(C)N(C)C(=O)NC12C (configuration not stated)
[reply] > 100 µM (inactive)

[ask] Form: Entry = "Cc1cccc(NC(=S)Nc2cccc(Cl)c2)n1" | System = SF-295 | GI50 = ____
[reply] 32.1 µM (inactive)
